system: NCI-H460 lung; experiment: NCI-60 one-dose screen, 48 h (100 = growth as untreated, 0 = no growth, -100 = all killed); details: 10 µM unless noted
Compounds without any hit were thinned out: in the full panel of roughly 83,000, 20% have a hit.
Criterion: growth strictly under 50%. Met: T. Not met: F.

Worked set:
>>> label("C=C1C(=O)O[C@H]2[C@H]1CC/C(COC(=O)NCC(C)c1ccc(CC(C)C)cc1)=C\\CC[C@@]1(C)O[C@@H]21 (some centres undefined)")
"T"
>>> label("O=C1/C=C/[C@@H](O)[C@@H]2C[C@@H](O)C[C@H]2/C=C/CCC[C@H](CCc2cccc3ccccc23)O1")
"T"
>>> label("CCCCCCNC(=O)Nc1ccc2cc3ccc(NC(=O)NCCCCCC)cc3nc2c1")
"T"
>>> label("COc1ccc(N2CCN(c3ccc(NC4=C(Cl)C(=O)c5ncccc5C4=O)cc3)CC2)cc1")
"T"
>>> label("COc1cccc(C(=O)NNc2nc(Cl)nc(N3CCN(C(c4ccccc4)c4ccccc4)CC3)n2)c1")
"F"
>>> label("COc1cc(C(=O)Nc2cc3c(cc2Oc2cc(C)cc(C)c2)C(=O)N(C)[C@@H](CC(=O)N(C)O)C(=O)N3)c(Br)c(OC)c1OC")
"T"
>>> label("O=C(/C(=C\\c1ccc([N+](=O)[O-])cc1)S(=O)Cc1ccc(F)cc1)c1ccc(F)cc1 (centres undefined)")
"T"
>>> label("CCOC(=O)CCN(CC(C)C)C(=S)Nc1ccccc1")
"F"
>>> label("O=C(/C=C(O)/C=C/c1ccc(SC(F)(F)F)cc1)/C=C/c1ccc(SC(F)(F)F)cc1")
"F"
>>> label("O=C(c1nc2ccccc2[nH]1)C1C(c2ccc(Br)cc2)C2CC3CCCC[C@H]3N2[C@@]12C(=O)Nc1cc(Cl)ccc12 (some centres undefined)")
"T"

Lookup: Threshold test, growth < 50%: "O=S(=O)(NCCCNc1nccc(-c2c(-c3cccc(F)c3)nc3sccn23)n1)c1cccc(F)c1"
Found: F

Lookup: Threshold test, growth < 50%: "O=S(=O)(NCCNc1nccc(-c2c(-c3cccc(O)c3)nc3occn23)n1)c1ccc(Cl)cc1"
Found: F

---

system: CCRF-CEM leukemia; assay: NCI-60 one-dose screen, 48 h; conditions: 10 µM unless noted
The panel holds about 83,000 compounds, 20% with a hit somewhere; the sample as a whole holds those more often. Active and inactive are the calls of the source. The calls were made as follows: active = growth percent below 10; inactive = the rest.
Hello, when you answer, please use one of the following outcomes: True for active, False for inactive

Worked set:
>>> label("COc1cc(/C(C)=C(\\c2ccc(Cl)cc2)c2ccc(OCCN3CCCC3)cc2)ccc1F")
"False"
>>> label("COc1cc(C(=O)Nc2cc3c(cc2Oc2cc(C)cc(C)c2)C(=O)N(C)[C@@H](CC(=O)N(C)O)C(=O)N3)c(Br)c(OC)c1OC")
"True"
>>> label("CNC(=O)c1cc(Cn2nc(C)c(NC(=O)Nc3ccc(Cl)c(C(F)(F)F)c3)c2C)ccn1")
"False"
>>> label("N/C(=N\\C(N)=N\\c1nc2ccccc2s1)c1cccc(Cl)c1")
"False"

# next compound below
Lookup: Please share the test call associated with "COc1cccc(C(=O)NNc2nc(Cl)nc(N3CCN(C(c4ccccc4)c4ccccc4)CC3)n2)c1" .
Found: True

---

# reported growth; entries follow
system: CCRF-CEM leukemia; assay: NCI-60 one-dose screen, 48 h (100 = growth as untreated, 0 = no growth, -100 = all killed); settings: 10 µM unless noted
This is part of a sample that, as a whole, favours compounds with a hit. Of some 83,000 tested, about 20% had one in any assay.
# number only, unit % dropped from output

Worked set:
>>> measurement("O=C1Nc2ccccc2/C1=C\\c1c(-c2ccccc2)nc2ccccn12")
37.9
>>> measurement("O=C(O)c1ccc(-c2nn(-c3ccc(C(F)(F)F)cc3)cc2CNc2ccc(Oc3ccccc3)cc2)cc1")
76.7
>>> measurement("CCCOc1ccc(/C=N/Nc2cc(C)nc3ccc(Br)cc23)cc1")
28.3
>>> measurement("Cc1ccc(C(=O)/C(=C\\c2ccc([N+](=O)[O-])cc2)S(=O)Cc2ccc(Cl)cc2)cc1 (centres undefined)")
4.88
>>> measurement("CCCCCN1C=C/C(=C\\C(=O)n2ccc3ccccc32)c2ccccc21")
94.6

Lookup: Give recorded growth with CCRF-CEM leukemia for the following molecule: "C=C(C)[C@@H]1CC[C@]2(C(=O)N3CCN(C)CC3)CC[C@]3(C)[C@H](CC[C@@H]4[C@@]5(C)CC[C@H](OCCC#N)C(C)(C)[C@@H]5CC[C@]43C)[C@@H]12"
Found: 23

Lookup: Give recorded growth with CCRF-CEM leukemia for the following molecule: "Nc1c(S(=O)(=O)O)cc2c3c(cccc13)C(=O)OC2=O"
Found: 102

Lookup: Give recorded growth with CCRF-CEM leukemia for the following molecule: "O=C1/C=C/[C@@H](O)[C@@H]2C[C@@H](O)C[C@H]2/C=C/CCC[C@H](CCc2ccc3ncccc3c2)O1"
Found: 7.39

Lookup: Give recorded growth with CCRF-CEM leukemia for the following molecule: "Nc1c(C(=O)Nc2ccnc3ccccc23)sc2nc3c(cc12)CN(Cc1ccccc1)CC3"
Found: 26.1

---

System: HCC-2998 colon
Test: NCI-60 one-dose screen, 48 h (100 = growth as untreated, 0 = no growth, -100 = all killed)
Details: 10 µM unless noted
Experimental: Growth inhibition of the HCC-2998 human tumor cell line is measured as a screen for anti-cancer activity. Cells are grown in 96 well plates and exposed to the test compound for 48 hours. Compounds are tested at a single concentration, which is 10^-5 M for most compounds. The reported endpoint is percent growth (GI% or GIPRCNT), where numbers from 0 - 100% represent growth inhibition, and numbers from -100% - 0 represent cell death. For example, a value of 40 represents 60% growth inhibition. […]
About 83,000 compounds went through this panel and 20% of them were active in at least one assay; those are over-represented in the sample as a whole.
# reported growth; entries follow
# number only, unit % dropped from output

>>> measurement("COc1cc2nc(-c3ccc(Cl)cc3)cc(OCCCN3CCCCC3)c2cc1OC")
67.7
>>> measurement("COC(=O)/C=C1\\S/C(=N\\NC(=O)c2cc3ccc2/C=C\\c2ccc(cc2)/C=C\\3)N(Cc2ccccc2)C1=O")
79.5
>>> measurement("CCN(CC)c1ccc(C(=O)c2ccccc2)cc1")
107
>>> measurement("COc1ccc(C(=O)CSc2nc(-c3cc(OC)ccc3OC)cc(-c3ccc(Cl)cc3)c2C#N)cc1")
78.3
>>> measurement("COc1cc(OC)cc(C(=O)C[n+]2cccc3cc[nH]c32)c1")
107

Lookup: Would you mind telling me what growth value was observed for "COc1ccc(/C=C(\C#N)n2nc3cccc(F)c3n2)cc1" ?
Found: 107

Lookup: Would you mind telling me what growth value was observed for "COc1cc(NCCCCCNC(C)(C)C)c2ncccc2c1" ?
Found: 97.5

Lookup: Would you mind telling me what growth value was observed for "CCCCCN1C=C/C(=C\C(=O)N2CCCc3ccccc32)c2ccccc21" ?
Found: 102

Lookup: Would you mind telling me what growth value was observed for "COc1ccc(/C=C/c2nc(Nc3ccc(Cl)cc3)c3ccccc3n2)cc1" ?
Found: 63.9

Lookup: Would you mind telling me what growth value was observed for "Cc1ccc(-n2cc(-c3ccccc3)c3c2N=NN2CCN=C32)cc1" ?
Found: 111

---

system: COLO 205 colon; test: NCI-60 one-dose screen, 48 h; conditions: 10 µM unless noted
The panel holds about 83,000 compounds, 20% with a hit somewhere; the sample as a whole holds those more often. Calls of active or inactive are those of the source. The calls were made as follows: active = growth percent below 10; inactive = the rest.
Hello, when you answer, please use one of the following outcomes: 1 = active, 0 = inactive

>>> label("COc1cc(/C=N/NC(=O)c2cnn3c2NC(c2ccccc2)C3)ccc1OCc1ccccc1 (stereo not given)")
1
>>> label("O=C(N/N=C/c1ccc(Oc2ccccc2)cc1)c1cnn2c1NC(c1ccccc1)C2 (stereo not given)")
0
>>> label("O=C1Nc2cc(-c3cccc(O)c3)ccc2/C1=C/c1ccc[nH]1")
0
>>> label("CCOC(=O)Oc1c(OC)cc(C(=O)c2ccc(OC)c(O)c2OC)cc1OC")
0

Lookup: Please share the test call associated with "C=C1C(=O)O[C@H]2[C@H]1CC/C(CNC(=O)/C=C/c1ccccc1)=C\CC[C@@]1(C)O[C@@H]21" .
Found: 1

Lookup: Please share the test call associated with "O=C(Cn1c(C(=O)c2ccccc2)nc2ccccc21)c1ccc(F)cc1" .
Found: 0

Lookup: Please share the test call associated with "Cc1cccc(NC(=O)Nc2ccc(-n3cnc4cc(-c5ccc(O)cc5)ccc43)cc2)c1" .
Found: 0

Lookup: Please share the test call associated with "Cc1nc2ccc(Cl)cn2c1-c1nnc(SCc2ccc([N+](=O)[O-])cc2)o1" .
Found: 0

Lookup: Please share the test call associated with "O=C(Nc1ccc(NC(=O)c2cc(=O)[nH]c3ccccc23)cc1)Nc1cccc(Cl)c1" .
Found: 0

Lookup: Please share the test call associated with "N#C/C(=C\c1ccccn1)c1nc2cc(Cl)ccc2s1" .
Found: 0

Values were extracted from PubChem BioAssay (NCI).
